B1: TTC32 (parent)
chain: YSAYIRRCACAASSDESPGSKCSP

Variants of: B1
Protocol summary: protein stability index of a GFP-peptide fusion (GPS, HEK-293T) (PSI 1-6); higher = more stable;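 note: lentivirally expressed fusions sorted by FACS into six bins by GFP to DsRed ratio, PSI derived from sequencing read proportions per bin multiplied by bin number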
Experimental conditions: c terminus: a fixed tail appended
So I've got a bunch of variants here, and I need their protein stability index values.
One number for each entry.

Variant string: S2L
protein stability index: 2
--
Variant string: K21Q
protein stability index: 1.98
--
Variant string: S13W
protein stability index: 1.98

Let us examine a further case.
Lab note: measured protein stability index of A11Q was 2.03

Hey, just so you know, these numbers are from the supplement of paper PMC10567573.
